Test system: A549-TP53BP1-CLTA
ASSAY NOTES: phenotypically active (imaging signature differs from DMSO and reproducible) at any of 0.3-9 uM (binary (1 = active, 0 = inactive)); higher = active
EXPERIMENTAL SETUP: treatment time: 24 h
Where a name gives a salt, the structure may show the parent alone.
Pick one and only one: active, inactive

Solved entries:
molecule=CCCOc1ccc(CCc2nc3cc(-c4c(C)noc4C)ccc3n2CCN2CCOCC2)cc1 class_label=inactive
molecule=CCN1CCN(c2cc(-c3ccc(F)cc3)c3c(n2)CCCCCC3)CC1 class_label=active
molecule="Cc1ccc(OCCSc2ncccn2)c(Br)c1 [ZLN 024 hydrochloride]" class_label=inactive

API: the following record is the query input.
How did this test come out for COC(=O)[C@H]1[C@H]2C[C@H]3c4[nH]c5ccccc5c4CCN3C[C@@H]2CC[C@@H]1O [Corynanthine hydrochloride] ?
inactive

###

System: A549-TP53BP1-CLTA
ASSAY NOTES: phenotypically active (imaging signature differs from DMSO and reproducible) at any of 0.3-9 uM (binary (1 = active, 0 = inactive)); higher = active
EXPERIMENTAL SETUP: treatment time: 24 h
Pick one and only one: active, inactive

Solved entries:
compound="COc1ccccc1OCC(O)CN1CCN(CC(=O)Nc2c(C)cccc2C)CC1 (stereo not given)" tested_system=A549-TP53BP1-CLTA class_label=inactive
compound=Cn1cc(C2=C(c3ccc(Cl)cc3Cl)C(=O)NC2=O)c2ccccc21 tested_system=A549-TP53BP1-CLTA class_label=active
compound=NC(=O)Nc1sc(-c2ccc(F)cc2)cc1C(N)=O tested_system=A549-TP53BP1-CLTA class_label=active
compound=CCc1cncnc1N1CCN(Cc2nc3cc(C(F)(F)F)ccc3[nH]2)CC1 tested_system=A549-TP53BP1-CLTA class_label=inactive
compound=N#C/C(=C(/N)Sc1ccc(N)cc1)c1ccccc1C(F)(F)F tested_system=A549-TP53BP1-CLTA class_label=active

How did this test come out for COc1ccc(CCc2nc3c(C)c(-c4c(C)noc4C)c(C)cc3n2CCN2CCOCC2)cc1 ?
inactive

How did this test come out for O=C(NCCO)c1cc(C(=O)NCCO)cc(C(=O)NCCO)c1 ?
inactive

How did this test come out for CC(C)OC(=O)c1cc2c(OCC(O)CNC(C)(C)C)cccc2[nH]1 (stereo not given) ?
active

How did this test come out for N=C(N)NN=Cc1c(Cl)cccc1Cl ?
inactive

How did this test come out for CO[C@@]12[C@H](COC(N)=O)C3=C(C(=O)C(C)=C(N)C3=O)N1C[C@@H]1N[C@@H]12 ?
inactive

###

Tested on: A549-GM130-SQSTM1
ASSAY NOTES: phenotypically active (imaging signature differs from DMSO and reproducible) at any of 0.3-9 uM (binary (1 = active, 0 = inactive)); higher = active
EXPERIMENTAL SETUP: treatment time: 24 h
Counter-ions that a name gives are not always drawn.
TEST READOUT: phenotypically active
Could you keep your reply to the number by itself?

Previously resolved entries follow.
compound=CC(C)c1ccc(NC(=O)Cn2cnc3c2c(=O)n(C)c(=O)n3C)cc1 recorded_value=0
compound=CC(=O)[C@H]1CC[C@H]2[C@@H]3CCC4=CC(=O)CC[C@]4(C)[C@H]3CC[C@]12C recorded_value=0
compound=CC(C)Cn1c(=O)n(C)c(=O)c2[nH]cnc21 recorded_value=0
compound="CCCC(CCC)C(=O)O [Valproic acid, sodium salt]" recorded_value=0
compound=Cc1cc2c(s1)Nc1ccccc1N=C2N1CCN(C)CC1 recorded_value=0

Item CC[C@H](CO)Nc1nc(NCc2ccccc2)c2ncn(C(C)C)c2n1 with A549-GM130-SQSTM1 - phenotypically active?
1

Item Cc1cc(Nc2ncc3c(n2)N(C)C(=O)N(c2cc(NC(=O)c4cccc(C(F)(F)F)c4)ccc2C)C3)n(C)n1 with A549-GM130-SQSTM1 - phenotypically active?
1

Item NS(=O)(=O)c1cc(Cl)c(Cl)c(S(N)(=O)=O)c1 [diclofenamide] with A549-GM130-SQSTM1 - phenotypically active?
0

Item COC(=O)C1CC23C=CCN4CCC5(c6ccccc6NC15[C@H]2C)C43 (some centres undefined) [Vindolinine dichlorhydrate] with A549-GM130-SQSTM1 - phenotypically active?
0

Item COc1ccccc1-c1c[nH]c2ncc(-c3cncc(C(=O)N(C)C)c3)cc12 with A549-GM130-SQSTM1 - phenotypically active?
1

Item COc1c(C=O)c(O)cc2c1C(=O)c1ccccc1C2=O with A549-GM130-SQSTM1 - phenotypically active?
1

Item CC(C)(C)c1cc(C(=O)/C=C/c2ccc(C(=O)O)cc2)cc(C(C)(C)C)c1 with A549-GM130-SQSTM1 - phenotypically active?
1

Item CC(CN1c2ccccc2Sc2ccccc21)N(C)C (centres undefined) with A549-GM130-SQSTM1 - phenotypically active?
1

Item C=C[C@H]1[C@H](O[C@@H]2O[C@H](CO)[C@@H](O)[C@H](O)[C@H]2O)OC=C2C(=O)NCC[C@H]21 with A549-GM130-SQSTM1 - phenotypically active?
0

Item CN(C)CCCN1c2ccccc2Sc2ccc(C(F)(F)F)cc21 with A549-GM130-SQSTM1 - phenotypically active?
1

Item CCOC(=O)c1c2c3c(cccc3[nH]c1=O)C(=O)c1ccccc1-2 with A549-GM130-SQSTM1 - phenotypically active?
1

Item NC(=O)c1cccc(-c2cccc(OC(=O)NC3CCCCC3)c2)c1 with A549-GM130-SQSTM1 - phenotypically active?
0

Item O=C1N[C@@H]2[C@@H](O)[C@@H](O)[C@H](O)[C@@H](CO)N2C1=O with A549-GM130-SQSTM1 - phenotypically active?
0

Item Cc1cnc(C(=O)NCCc2ccc(S(=O)(=O)NC(=O)NC3CCCCC3)cc2)cn1 [glipizide] with A549-GM130-SQSTM1 - phenotypically active?
0

###

Tested on: HepG2-TUBA1B-RELA
ASSAY NOTES: lowest phenotypically active concentration; higher = less potent
EXPERIMENTAL SETUP: treatment time: 24 h
Where a name gives a salt, the structure may show the parent alone.
TEST READOUT: lowest phenotypically active concentration (µM)
Please reply with the bare figure in µM and do not write the unit itself.

Previously resolved entries follow.
molecule=Cc1cc(Nc2ccc(NC(=O)c3ccc(Nc4ccnc5ccccc45)cc3)cc2)nc(N)n1 measure_unit=µM recorded_value=3
molecule="O=C(CCCCCCC(=O)Nc1cccnc1)NO [Pyroxamide]" measure_unit=µM recorded_value=3
molecule=CCOC(=O)c1c(CSc2ccccc2)n(C)c2cc(Br)c(O)c(CN(C)C)c12 measure_unit=µM recorded_value=9
molecule="COc1ccc(N2C(=O)CSC2c2cccc(Br)c2)c(OC)c1 (centres undefined)" measure_unit=µM recorded_value=9
molecule=C/C(=N/NC(=N)N)c1ccc(NC(=O)Nc2ccc(/C(C)=N/NC(=N)N)cc2)cc1 measure_unit=µM recorded_value=3

Item CC(C)n1c(/C=C/[C@@H](O)C[C@@H](O)CC(=O)O)c(-c2ccc(F)cc2)c2ccccc21 with HepG2-TUBA1B-RELA - lowest phenotypically active concentration?
3

Item CC[C@H](CO)Nc1nc(Nc2cccc(-c3ccccn3)c2)c2ncn(C(C)C)c2n1 [(R)-DRF053 dihydrochloride] with HepG2-TUBA1B-RELA - lowest phenotypically active concentration?
9

###

Tested on: HepG2-TUBA1B-RELA
ASSAY NOTES: phenotypically active (imaging signature differs from DMSO and reproducible) at any of 0.3-9 uM (binary (1 = active, 0 = inactive)); higher = active
EXPERIMENTAL SETUP: treatment time: 24 h
Pick one and only one: active, inactive

compound=C[C@]12CC[C@@H]3c4ccc(O)cc4CC[C@H]3[C@@H]1CCC2=O class_label=inactive
compound="CC(CN1c2ccccc2Sc2ccccc21)N(C)C (stereo not drawn)" class_label=active
compound=CCOC(=O)c1c(CSc2ccccc2)n(C)c2cc(Br)c(O)c(CN(C)C)c12 class_label=active
compound=O=C(O)c1ccc(Nc2ncc3c(n2)-c2ccc(Cl)cc2C(c2c(F)cccc2F)=NC3)cc1 class_label=active
compound=CC(=O)N1CCN(c2ccc(OC[C@H]3CO[C@](Cn4ccnc4)(c4ccc(Cl)cc4Cl)O3)cc2)CC1 class_label=inactive

How did this test come out for Cn1c(=O)c2[nH]cnc2n(C)c1=O ?
inactive

How did this test come out for Cc1cccc(C)c1OCC(C)N (stereo not drawn) ?
inactive

How did this test come out for COc1ccc(CCN(C)CCCC(C#N)(c2ccc(OC)c(OC)c2)C(C)C)cc1OC (stereo not drawn) ?
inactive

How did this test come out for CCCCOc1c(C(=O)c2c(F)cc(C)cc2F)cnc2[nH]ncc12 ?
active

###

Tested on: A549-TP53BP1-CLTA
ASSAY NOTES: lowest phenotypically active concentration; higher = less potent
EXPERIMENTAL SETUP: treatment time: 24 h
Counter-ions that a name gives are not always drawn.
TEST READOUT: lowest phenotypically active concentration (µM)
Please reply with the bare figure in µM and do not write the unit itself.

Previously resolved entries follow.
molecule=C[C@H]1Oc2cc(cnc2N)-c2c(nn(C)c2C#N)CN(C)C(=O)c2ccc(F)cc21 recorded_value=3
molecule=COc1cc2ncnc(Nc3ccc(Cl)cc3F)c2cc1OC recorded_value=3
molecule=CN[C@H]1CC[C@@H](c2ccc(Cl)c(Cl)c2)c2ccccc21 recorded_value=9
molecule=COc1ccc(S(=O)(=O)Nc2cccnc2Nc2ccc(O)cc2)cc1 recorded_value=1
molecule=CCN(CC)CCNc1ccc(CO)c2sc3ccccc3c(=O)c12 recorded_value=9
molecule="COc1cc(OC)c2cc(-c3ccncc3)cnc2c1 [DMPQ dihydrochloride]" recorded_value=9
molecule=COc1ccc(S(=O)(=O)N(C(C)=O)c2ccccc2/C=C/c2cc[n+]([O-])cc2)cc1 recorded_value=3
molecule=O=C(CCCc1ccc(-c2ccccc2F)cc1)Nc1ccc(O)cc1 recorded_value=1
molecule=Cc1ccc(/C(=C/CN2CCCC2)c2cccc(/C=C/C(=O)O)n2)cc1 recorded_value=9
molecule=C[C@H](NC(=O)c1sccc1OCc1ccc(Cl)cc1)c1ccccc1 recorded_value=9

# query: lowest phenotypically active concentration of entry COc1cc(/C=C/c2ccc(OC)cc2OC)cc(OC)c1
1

# query: lowest phenotypically active concentration of entry CC(=O)Nc1ccc(C(=O)Nc2ccccc2N)cc1
3

# query: lowest phenotypically active concentration of entry CC[C@]12CCCN3CCc4c(n(c5ccccc45)C(=O)C1)[C@@H]32 [Eburnamonine (-)]
9

# query: lowest phenotypically active concentration of entry Cc1cn(CCN2CCN(c3ccccc3-c3cc(C#N)cc(C(=O)NCCCN4CCCC4)c3)CC2)c2ccccc12
3

# query: lowest phenotypically active concentration of entry Cc1cc2c(F)c(Oc3ncnn4cc(OC[C@@H](C)OC(=O)[C@H](C)N)c(C)c34)ccc2[nH]1 [brivanib-alaninate]
9

# query: lowest phenotypically active concentration of entry C[C@H]1[C@H]2CC[C@H]3[C@@H]4CC=C5C[C@@H](N(C)C)CC[C@]5(C)[C@H]4CC[C@]23CN1C
3

# query: lowest phenotypically active concentration of entry O=C(CCCCCCC(=O)Nc1ccccc1)NO
1

# query: lowest phenotypically active concentration of entry COc1cc2c(cc1-c1c(C)noc1C)ncc1[nH]c(=O)n([C@H](C)c3ccccn3)c12 [I-BET 151 dihydrochloride]
3

# query: lowest phenotypically active concentration of entry Nc1ncn([C@@H]2O[C@H](CO)[C@@H](O)[C@H]2O)c(=O)n1
1

# query: lowest phenotypically active concentration of entry CCc1cc(-c2n[nH]c(C)c2-c2ccc3c(c2)OCCO3)c(O)cc1O
3

# query: lowest phenotypically active concentration of entry CN1CCCC(n2nc(Cc3ccc(Cl)cc3)c3ccccc3c2=O)CC1 (stereo unspecified)
9

# query: lowest phenotypically active concentration of entry CCCCCCCCCCNCCSSCc1ccc(Cl)cc1
9

# query: lowest phenotypically active concentration of entry COc1ccc2c(NC(=O)Nc3cccc(C(F)(F)F)n3)ccnc2c1
9

# query: lowest phenotypically active concentration of entry CN(C)CCCN1c2ccccc2Sc2ccc(Cl)cc21
9
